Target: UniProtKB P61073
Sequence (P61073 whole entry): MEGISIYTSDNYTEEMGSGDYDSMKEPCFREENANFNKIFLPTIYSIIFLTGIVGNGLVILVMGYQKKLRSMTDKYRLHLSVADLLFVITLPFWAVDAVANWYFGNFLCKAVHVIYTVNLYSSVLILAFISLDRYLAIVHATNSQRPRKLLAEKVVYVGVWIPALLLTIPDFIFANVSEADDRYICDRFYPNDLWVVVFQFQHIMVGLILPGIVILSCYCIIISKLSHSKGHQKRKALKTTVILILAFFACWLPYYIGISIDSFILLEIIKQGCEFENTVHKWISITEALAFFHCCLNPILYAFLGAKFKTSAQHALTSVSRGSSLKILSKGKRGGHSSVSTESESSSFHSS
Assay: Determination of IC50: competition with 125I-Fc-131 on CXCR4-positive Jurkat cells;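 note: test compound at 10^−5 to 10^−11 M competed for 2 h at 8 °C with the radioligand on 400,000 cells per well, bound versus free activity measured by γ-counting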
Format: binding
Parameters: CXCR4-positive Jurkat T lymphocyte cells were grown in Gibco's RPMI 1640 GlutaMAX medium; endogenous in cells; host or cells: Jurkat T lymphocyte cells (whole cells in suspension, 400.000 per tube)
pIC50: −log10 of the molar value. Positions of bridges follow the written chain, without caps; N, C: chain ends. Non-standard residues stand in square brackets, D forms with d. Residues, ends and D or L forms follow the SMILES beside them. Chains are numbered I, II in the order given. *: point of attachment. 2Nal = N[C@@H](Cc1ccc2ccccc2c1)C(=O)O; dNMeOrn = CN[C@H](CCCN)C(=O)O; Mercaptoacetyl = O=C(CS)*; 4Abz = Nc1ccc(C(=O)O)cc1; dDap = NC[C@@H](N)C(=O)O
Quick rule for you: pIC50 at 8 or higher means 1, lower means -1.

>>> assignedlabel("C[C@@H](NC(=O)[C@@H](CCCNC(=N)N)NC(=O)[C@@H](C)NC(=O)[C@@H](CO)NC(=O)[C@@H](CO)NC(=O)[C@@H](CO)NC(=O)CS)C(=O)Nc1ccc(C(=O)NCCC[C@@H]2C(=O)N[C@@H](CCCNC(=N)N)C(=O)N[C@@H](Cc3ccc4ccccc4c3)C(=O)NCC(=O)N[C@H](Cc3ccc(O)cc3)C(=O)N2C)cc1 [Tc-CXCR4-2] (I: Mercaptoacetyl-[dS][dS][dS][dA][dR][dA][4Abz] / II: cyclo([dY][dNMeOrn]R[2Nal]G); amide I:C-II:2)")
-1
>>> assignedlabel("C[C@@H](NC(=O)[C@@H](CCCNC(=N)N)NC(=O)[C@@H](CO)NC(=O)[C@@H](CO)NC(=O)[C@@H](CO)NC(=O)CS)C(=O)Nc1ccc(C(=O)NCCC[C@@H]2C(=O)N[C@@H](CCCNC(=N)N)C(=O)N[C@@H](Cc3ccc4ccccc4c3)C(=O)NCC(=O)N[C@H](Cc3ccc(O)cc3)C(=O)N2C)cc1 [Tc-CXCR4-1] (I: Mercaptoacetyl-[dS][dS][dS][dR][dA][4Abz] / II: cyclo([dY][dNMeOrn]R[2Nal]G); amide I:C-II:2)")
-1
>>> assignedlabel("C[C@@H](NC(=O)[C@@H](CCCNC(=N)N)NC(=O)[C@@H](CN)NC(=O)[C@@H](CO)NC(=O)[C@@H](CO)NC(=O)[C@@H](CO)NC(=O)CS)C(=O)Nc1ccc(C(=O)NCCC[C@@H]2C(=O)N[C@@H](CCCNC(=N)N)C(=O)N[C@@H](Cc3ccc4ccccc4c3)C(=O)NCC(=O)N[C@H](Cc3ccc(O)cc3)C(=O)N2C)cc1 [Tc-CXCR4-6] (I: Mercaptoacetyl-[dS][dS][dS][dDap][dR][dA][4Abz] / II: cyclo([dY][dNMeOrn]R[2Nal]G); amide I:C-II:2)")
1
>>> assignedlabel("C[C@@H](NC(=O)[C@@H](CCCNC(=N)N)NC(=O)[C@@H](Cc1ccccc1)NC(=O)[C@@H](CO)NC(=O)[C@@H](CO)NC(=O)[C@@H](CO)NC(=O)CS)C(=O)Nc1ccc(C(=O)NCCC[C@@H]2C(=O)N[C@@H](CCCNC(=N)N)C(=O)N[C@@H](Cc3ccc4ccccc4c3)C(=O)NCC(=O)N[C@H](Cc3ccc(O)cc3)C(=O)N2C)cc1 [Tc-CXCR4-4] (I: Mercaptoacetyl-[dS][dS][dS][dF][dR][dA][4Abz] / II: cyclo([dY][dNMeOrn]R[2Nal]G); amide I:C-II:2)")
-1
